Source listed as patent US20240150451A1.

target.desc: T1, Tau peptide Start 411 Stop 430
T1 peptide: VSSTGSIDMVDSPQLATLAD
procedure.summary: Pepscan ELISA on an array of linear 20-mer Tau 441 peptides
Design: unit not given here
experimental.endpoint: peptide ELISA signal (no name or unit printed)

binder: hTau60 monoclonal antibody (recombinant, mouse IgG2a/kappa) (antibody, V domains shown, also called hTau60 (PT1B469)) VH: EVQLQQSGPELVKPGTSVKISCKVFGYTFTDYYMNWVKQSHGKSLEWIGDINPDNGETTYNQKFKGKATLTVDKSSSTAYMELRSLTSEDSAVYYCAKGATFVYWGQGTLVTVSA VL: DVVMTQTPLSLPVSLGDQASISCISSQSLVHSTGTTFLHWFLQKPGQSPKLLIYKVSNRFSGVPDRFSGSGSGTDFTLKISRVEAEDLGFYFCSQSTYFPLTFGSGTKLEIKR
recorded.result: 36
//
binder: PT53 monoclonal antibody (recombinant, mouse IgG2a/kappa) (antibody, V domains shown, also called PT50/PT53) VH: EVKLMESGGGLVQPGASLRLSCAASGFTFTDYYMSWVRQPPGKAPEWLALIRNKANGYTTKYAASVKGRFTISRDNSQNILYLQMNTLRAEDSATYYCVKAVWFAYWGQGTLVTVSA VL: DIVITQDELSNPVTSGESVSISCRSSKSLLYKDGKTYLNWFLQRPGQSPQLLIYLMSTRASGVSDRFSGSGSGTDFTLEISRVKAEDVGVYYCLQLVEYPYTFGGGTKLEIKR
recorded.result: 29
//
binder: PT81 monoclonal antibody (recombinant, mouse IgG2a/kappa) (antibody, V domains shown) VH: QVQLQQPGAELVRPGASVILSCKASGYTFTNSWIHWVKQRPGRVLEWIGRIDPNSGGTRYNENFKSKATLTVDKPSSTAYMQLSSLTSEDSAVYFCSRGVLHDYWGQGTTLTVSS VL: DIVITQDELSNPVTSGESVSISCRSSKSLLYKDGKTYLNWFLQRPGQSPQLLIYLMSTRASGVSDRFSVSGSGTDFTLEISRVQAEDVGVYYCQQLVEYPYTFGGGTKLEIKR
recorded.result: 31
//
binder: PT69 monoclonal antibody (recombinant, mouse IgG2a/kappa) (antibody, V domains shown, also called PT69/PT87; PT69 (PT1B548)) VH: QVQLQQPGAELVKPGASVKMSCKASGYTFTNYWITWVKQRPGQGLEWIGDIYPGSGRTKSNEKFKNKATLTADTSSSTAYMQLSSLTSEDSAVYYCTRRWGLDYWGQGTTLTVSS VL: DIVITQDELSNPVTSGESVSISCRSNKSLLYKDGKTYLNWFLQRPGQSPQLLIYLMSTRASGVSDRFSGSGSGTDFTLEISRVKAEDVGVYYCQQLVDYPLTFGAGTKLELKR
recorded.result: 43
//
binder: PT66 monoclonal antibody (recombinant, mouse IgG2a/kappa) (antibody, V domains shown, also called PT66 (PT1B545)) VH: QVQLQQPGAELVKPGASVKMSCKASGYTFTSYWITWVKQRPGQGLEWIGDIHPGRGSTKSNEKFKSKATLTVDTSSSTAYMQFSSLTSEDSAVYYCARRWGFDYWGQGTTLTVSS VL: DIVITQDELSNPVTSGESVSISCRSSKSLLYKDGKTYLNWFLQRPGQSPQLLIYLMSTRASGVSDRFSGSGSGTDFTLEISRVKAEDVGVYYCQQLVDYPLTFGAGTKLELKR
recorded.result: 50
